- TEST_NAME: NCI Yeast Anticancer Drug Screen. Data for the mec2-1 strain (AID 157)
- ASSAY_SETUP: S. cerevisiae mec2-1 strain, at 50.0 µM, active compounds read high
About 79,000 compounds went through this panel and 15% of them were active in at least one assay; those are over-represented in the sample as a whole.
Let's look at some compounds and their measured growth inhibition.
Quick reminder: number only, in %, skip the unit.

Query: Recorded growth inhibition for O=C(OC1CCCC1OC(=O)c1ccccc1)c1ccccc1 (stereo not given) , please?
Result: 9.6

Query: Recorded growth inhibition for `Cc1c(Cl)c2ccccc2n1S(=O)(=O)c1ccccc1` , please?
Result: -3.55

Query: Recorded growth inhibition for `CCOC(=O)C1=C(O)CSC1=Nc1ccccc1` , please?
Result: 5.6

Query: Recorded growth inhibition for `CSc1nc(N)c(NS(=O)(=O)c2ccc(NC(C)=O)cc2)c(=O)[nH]1` , please?
Result: 1.8

Query: Recorded growth inhibition for `Cn1c(=O)c2c(ncn2CCCCn2ccnc2[N+](=O)[O-])n(C)c1=O` , please?
Result: -3.95

Cited source: PubChem BioAssay (NCI)
